- assay-comment: Cytotoxicity against human SNB75 cells at 10 uM after 48 hrs by SRB assay
- Format: functional
- condition-details: SNB-75, 48 h, read-out: GI
// bucketize inhibition of growth at 10 µM: low value (below 20%), medium value (20% to below 30%), high value (30% or more)

Cc1nc2cc(Nc3nc(NCCN)nc(Nc4ccc(F)cc4)n3)ccc2n1Cc1ccccc1	low value
Cc1nc2cc(Nc3nc(Nc4ccc(F)cc4)nc(-c4ccc(Cl)cc4)n3)ccc2n1Cc1ccccc1	high value
Cc1nc2ccc(Nc3nc(Nc4ccc(F)cc4)nc(N4CCCCC4)n3)cc2n1Cc1ccccc1	low value

Request: # bin lookup: classify `Cc1nc2ccc(Nc3nc(NCCO)nc(Nc4ccc(F)cc4)n3)cc2n1Cc1ccccc1` by its inhibition of growth at 10 µM
Result: low value

Request: # bin lookup: classify `Cc1nc2cc(Nc3nc(Nc4ccc(F)cc4)nc(-c4cccs4)n3)ccc2n1Cc1ccccc1` by its inhibition of growth at 10 µM
Result: high value

---

- Tested on: MDA-MB-231
- assay-comment: Cytotoxicity against human MDA-MB-231 cells at 10 uM after 48 hrs by SRB assay
- Assay type: functional
- condition-details: MDA-MB-231, 48 h, read-out: GI
Assign inhibition of growth at 10 µM to each entry below.
State the value with its unit after it.

Cc1nc2cc(Nc3nc(Nc4ccc(F)cc4)nc(Nc4ccc(F)cc4)n3)ccc2n1Cc1ccccc1	24.5%
COc1ccc(-c2nc(Nc3ccc(F)cc3)nc(Nc3ccc4c(c3)nc(C)n4Cc3ccccc3)n2)cc1	68.8%
Cc1nc2cc(Nc3nc(Nc4ccc(O)cc4)nc(Nc4ccc(F)cc4)n3)ccc2n1Cc1ccccc1	11.3%
Cc1nc2ccc(Nc3nc(NCCO)nc(Nc4ccc(F)cc4)n3)cc2n1Cc1ccccc1	7.95%
Cc1nc2ccc(Nc3nc(Cl)nc(Nc4ccc(F)cc4)n3)cc2n1Cc1ccccc1	25.9%

Take each entry in turn and give its inhibition of growth at 10 µM.
1. Cc1nc2ccc(Nc3nc(NCCN4CCOCC4)nc(Nc4ccc(F)cc4)n3)cc2n1Cc1ccccc1
2. Cc1nc2ccc(Nc3nc(NCCN)nc(Nc4ccc(F)cc4)n3)cc2n1Cc1ccccc1

Result:
1: 66.7%; 2: 42.9%

Take each entry in turn and give its inhibition of growth at 10 µM.
1. Cc1nc2cc(Nc3nc(NCCN)nc(Nc4ccc(F)cc4)n3)ccc2n1Cc1ccccc1
2. Cc1nc2cc(Nc3nc(NCCO)nc(Nc4ccc(F)cc4)n3)ccc2n1Cc1ccccc1

Result:
1. 39.6%
2. 19.7%

---

- Test system: UACC-257
- assay-comment: Cytotoxicity against human UACC257 cells at 10 uM after 48 hrs by SRB assay
- Assay type: functional
The source made the active and inactive calls. The calls are words filed in the database; no cut-off is given here.
Hi there, use one of these labels in your reply, thanks! t = active, f = inactive

Worked examples, 5 compounds total:
Cc1nc2ccc(Nc3nc(NCCO)nc(Nc4ccc(F)cc4)n3)cc2n1Cc1ccccc1	f
Cc1nc2cc(Nc3nc(Nc4ccc(F)cc4)nc(N4CCCC4)n3)ccc2n1Cc1ccccc1	t
Cc1nc2ccc(Nc3nc(Nc4ccc(F)cc4)nc(N4CCCCC4)n3)cc2n1Cc1ccccc1	f
Cc1nc2ccc(Nc3nc(Cl)nc(Nc4ccc(F)cc4)n3)cc2n1Cc1ccccc1	f
Cc1nc2ccc(Nc3nc(NCCN4CCOCC4)nc(Nc4ccc(F)cc4)n3)cc2n1Cc1ccccc1	t

Request: Please state the recorded outcome for this compound: `Cc1nc2cc(Nc3nc(Nc4ccc(F)cc4)nc(N4CCN(C)CC4)n3)ccc2n1Cc1ccccc1`
Result: t

Request: Please state the recorded outcome for this compound: `Cc1nc2cc(Nc3nc(Nc4ccc(F)cc4)nc(Nc4ncccn4)n3)ccc2n1Cc1ccccc1`
Result: f
